test system: MiaPaca-2 cells; assay: MiaPaca-2 Cell Proliferation Assay; assay type: cell-based; conditions: MiaPaca-2 cells; Table 2; read-out: Inhibition of cell proliferation in MiaPaca-2 (IC50 class)
pIC50: −log10 of the molar value.
So I've got a bunch of compounds here, and I need their pIC50 values.

So for "Cc1cc(-c2cc(NC(=O)c3cncc(C(F)(F)F)c3)ccc2C)cc(-c2ccnc(NC(=O)C3CC3)c2)n1" , the logged pIC50 turned out to be 5.00 to 6.00

# compound "CC(=O)Nc1cc(-c2cc(-c3cc(NC(=O)c4cc(C(F)(F)F)cnn4)ccc3C)ccn2)ccn1" ; its pIC50 = 6.30 to 7.00

Entry "CC(=O)Nc1cc(-c2cncc(-c3cc(NC(=O)c4cc(C(F)(F)F)cnn4)ccc3C)c2)ncn1" ; pIC50 = 6.00 to 6.30

The value of pIC50 measured for the compound "Cc1ccc(NC(=O)c2ccc(C(F)(F)F)nc2)cc1-c1ccnc(-c2ccnc(NC(=O)C3CC3)c2)c1" turned out to be 6.30 to 7.00
